// provenance: PubChem BioAssay (NCI)

System: NCI-H460 lung
PARAMETER: GI50

response.value for `CCOC(=O)C1=CN(C)C=C(C(=O)OCC)C1c1cc(Br)c(OCC)c(OC)c1` (field: GI50) = 43.5 µM

response.value for `c1ccc(-c2nnc(-c3ccccn3)s2)nc1` (field: GI50) = > 100 µM

response.value for `Cn1c(I)c(C#CCO[Si](C)(C)C(C)(C)C)c(=O)[nH]c1=O` (field: GI50) = 53.8 µM

response.value for CC(=O)OC1COC(Oc2c(C)c3c4c(c2O)[C@@H](C)CC[C@@H]4[C@@H](C)C[C@H]3C=C(C)C)C(O)C1OC(C)=O (stereo not given in full) (field: GI50) = 8.36 µM

response.value for `Cc1ccnc2[nH]c(-c3ccc4ccccc4c3)cc(=O)c12` (field: GI50) = 1.05 µM
